Ref: BindingDB's records for patent US12065430

- System: Son of sevenless homolog 1 [564-1049]/GTPase KRas [G12C] (UniProt P01116+Q07889, G12C)
- Construct: 564-1049
- Sequence (P01116 whole entry G12C): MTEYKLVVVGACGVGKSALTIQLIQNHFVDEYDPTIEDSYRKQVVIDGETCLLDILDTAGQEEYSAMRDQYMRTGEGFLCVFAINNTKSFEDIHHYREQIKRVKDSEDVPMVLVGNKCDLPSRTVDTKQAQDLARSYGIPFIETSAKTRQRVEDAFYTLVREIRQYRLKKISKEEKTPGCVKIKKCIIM
- Sequence (Q07889 564-1049): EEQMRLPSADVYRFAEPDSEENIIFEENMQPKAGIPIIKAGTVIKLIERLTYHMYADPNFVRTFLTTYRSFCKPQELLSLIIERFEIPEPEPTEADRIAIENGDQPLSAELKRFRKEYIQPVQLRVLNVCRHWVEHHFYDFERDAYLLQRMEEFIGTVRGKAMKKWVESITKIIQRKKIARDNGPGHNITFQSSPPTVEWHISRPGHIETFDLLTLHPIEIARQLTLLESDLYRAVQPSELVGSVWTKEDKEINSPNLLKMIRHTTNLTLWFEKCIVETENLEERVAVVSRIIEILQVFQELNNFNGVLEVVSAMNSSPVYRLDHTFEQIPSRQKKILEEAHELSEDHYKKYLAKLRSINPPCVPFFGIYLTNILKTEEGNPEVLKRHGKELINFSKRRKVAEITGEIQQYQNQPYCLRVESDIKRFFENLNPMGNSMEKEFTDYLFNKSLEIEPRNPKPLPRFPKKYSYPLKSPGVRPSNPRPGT
- Measurement Protocol: Evaluation of Inhibitory Activity of Compounds on KRAS G12C Nucleotide (GDP-GTP) Exchange Reaction
- Method: The inhibitory activity of compounds on exchange reaction of GDP into GppNHp in Bodipy (trademark) FL-bound KRAS G12C was examined by fluorescence measurement using human recombinant KRAS G12C and SOS1 proteins.For the preparation of KRAS G12C to which Bodipy FL GDP was bound, first, […] KRAS G12C (amino acid region: 1-169) and 1 mM Bodipy FL GDP (Invitrogen, G22360) were incubated for 1 hour in a buffer (20 mM Tris-HCl (pH 7.5), 50 mM NaCl, 1 mM DTT) in ice in the presence of 2.5 mM EDTA. […]
Parameter Measured: IC50 (nM)
Lab book: enter the figure in nM, no units written.

Prompt line: Give a short answer stating reported IC50 for C=CC(=O)N1CC(N(C)C(=O)c2c(C)nc(CNc3n[nH]c4cc(Cl)c(C(C)(C)C)cc34)n2C)C1 .
Response line: 208

Prompt line: Give a short answer stating reported IC50 for C=CC(=O)N1CC(NC(=O)c2c(C)nc(CNc3n[nH]c4cc(Cl)c(C(C)(C)C)cc34)n2CCC)C1 .
Response line: 9

Prompt line: Give a short answer stating reported IC50 for C=CC(=O)N1CC(NC(=O)c2c(Cl)nc(CNc3n[nH]c4cc(Cl)c(C(C)(C)C)cc34)n2[C@@H]2CCN(Cc3ccccc3)C2)C1 .
Response line: 6

Prompt line: Give a short answer stating reported IC50 for C=CC(=O)N1CCC(NC(=O)c2c(C)nc(CNc3n[nH]c4cc(Cl)c(C(C)(C)C)cc34)n2C)CC1 .
Response line: 1730

Prompt line: Give a short answer stating reported IC50 for C=CC(=O)N1CC(NC(=O)c2c(C)nc(CNc3n[nH]c4cc(Cl)c(C(C)(C)C)cc34)n2CCN(C)C)C1 .
Response line: 25

Prompt line: Give a short answer stating reported IC50 for C=CC(=O)N1CC(NC(=O)c2c(Cl)nc(CNc3n[nH]c4cc(Cl)c(C(C)(C)C)cc34)n2CC2CCCC2)C1 .
Response line: 9

----------
- System: Son of sevenless homolog 1 [564-1049]/GTPase KRas [G12C] (UniProt P01116+Q07889, G12C)
- Construct: 564-1049
- Measurement Protocol: Evaluation of Inhibitory Activity of Compounds on KRAS G12C Nucleotide (GDP-GTP) Exchange Reaction
Could you please mark met for values of IC50 below 0.04 µM and not met for values at or above it?

Prompt line: Given the entry C=CC(=O)N(C)C1CN(C(=O)c2c(C)nc(CNc3n[nH]c4cc(Cl)c(C(C)(C)C)cc34)n2C)C1 , would its reported IC50 be below 0.04 µM?
Response line: not met

Prompt line: Given the entry C=CC(=O)N1CC(NC(=O)c2c(C(F)F)nc(CNc3n[nH]c4cc(Cl)c(C(C)(C)C)cc34)n2C2CCN(C(C)C)C2)C1 (stereo unspecified) , would its reported IC50 be below 0.04 µM?
Response line: met

Prompt line: Given the entry C=CC(=O)N1CC(NC(=O)c2cnc(CNc3n[nH]c4cc(Cl)c(C=C)cc34)n2C)C1 , would its reported IC50 be below 0.04 µM?
Response line: not met

Prompt line: Given the entry C=CC(=O)N1CC(NC(=O)c2c(Cl)nc(CNc3n[nH]c4cc(Cl)c(C(C)(C)C)cc34)n2C2CCCN(C)C2)C1 (stereo unspecified) , would its reported IC50 be below 0.04 µM?
Response line: met

Prompt line: Given the entry C=CC(=O)N1CC(NC(=O)c2cc(CNc3n[nH]c4cc(Cl)c(C(C)(C)C)cc34)nn2C)C1 , would its reported IC50 be below 0.04 µM?
Response line: not met

Prompt line: Given the entry C=CC(=O)N1CC(NC(=O)c2c(Cl)nc(CNc3n[nH]c4cc(Cl)c(C(C)(C)C)cc34)n2C2CCCN(CC(F)F)C2)C1 (stereo unspecified) , would its reported IC50 be below 0.04 µM?
Response line: met

----------
Assignment: determine reported IC50 for the given compounds.
- System: Son of sevenless homolog 1 [564-1049]/GTPase KRas [G12C] (UniProt P01116+Q07889, G12C)
- Construct: 564-1049
- Measurement Protocol: Evaluation of Inhibitory Activity of Compounds on KRAS G12C Nucleotide (GDP-GTP) Exchange Reaction
Lab book: enter the figure in nM, no units written.

Prompt line: Give a short answer stating reported IC50 for C=CC(=O)N1CC(NC(=O)c2c(Cl)nc(CNc3n[nH]c4cc(Cl)c(C(C)(C)C)cc34)n2CC(C)C)C1 .
Response line: 7

Prompt line: Give a short answer stating reported IC50 for C=CC(=O)N1CC(NC(=O)c2c(Cl)nc(CNc3n[nH]c4cc(Cl)c(C(C)(C)C)cc34)n2C2CN(C(C)=O)C2)C1 .
Response line: 9

Prompt line: Give a short answer stating reported IC50 for C=CC(=O)N1CC(NC(=O)c2c(Cl)nc(CNc3n[nH]c4cc(Cl)c(C(C)(C)C)cc34)n2C2CCCCC2)C1 .
Response line: 23

----------
- System: Son of sevenless homolog 1 [564-1049]/GTPase KRas [G12C] (UniProt P01116+Q07889, G12C)
- Construct: 564-1049
- Measurement Protocol: Evaluation of Inhibitory Activity of Compounds on KRAS G12C Nucleotide (GDP-GTP) Exchange Reaction
Assignment: determine reported IC50 for the given molecules.
Lab book: enter the figure in nM, no units written.

Prompt line: Give a short answer stating reported IC50 for C=CC(=O)N1CC(NC(=O)c2cnc(CNc3n[nH]c4cc(Cl)c(C(C)(C)C)cc34)s2)C1 .
Response line: 783

Prompt line: Give a short answer stating reported IC50 for C=CC(=O)N1CC(NC(=O)c2c(Cl)nc(CNc3n[nH]c4cc(Cl)c(C5(C(F)(F)F)CC5)cc34)n2C(C)C)C1 .
Response line: 180

Prompt line: Give a short answer stating reported IC50 for Cc1nc(CNc2n[nH]c3cc(Cl)c(C(C)(C)C)cc23)n(C(C)C)c1C(=O)NC1CN(C(=O)/C=C\Cl)C1 .
Response line: 2350

Prompt line: Give a short answer stating reported IC50 for C=CC(=O)N1C[C@@H](CC#N)[C@@H](NC(=O)c2c(C)nc(CNc3n[nH]c4cc(Cl)c(C(C)(C)C)cc34)n2C)C1 .
Response line: 19

Prompt line: Give a short answer stating reported IC50 for C=CC(=O)N1CC(NC(=O)c2cnc(CNc3n[nH]c4cc(Cl)c(CC)cc34)n2C)C1 .
Response line: 870

Prompt line: Give a short answer stating reported IC50 for C=CC(=O)N1CC(NC(=O)c2c(C)nc(CNc3n[nH]c4cc(Cl)c(C(C)(C)C)cc34)n2CCOC)C1 .
Response line: 24

Prompt line: Give a short answer stating reported IC50 for C=CC(=O)N1CC(NC(=O)c2c(Cl)nc(CNc3n[nH]c4cc(Cl)c(C(C)(C)C)cc34)n2[C@@H]2CCN(c3ccccn3)C2)C1 .
Response line: 6

Prompt line: Give a short answer stating reported IC50 for C=CC(=O)N1CC(NC(=O)c2c(I)nc(CNc3n[nH]c4cc(Cl)c(C(C)(C)C)cc34)n2C)C1 .
Response line: 69

Prompt line: Give a short answer stating reported IC50 for C=CC(=O)N1CC(NC(=O)c2c(C(F)F)nc(CNc3n[nH]c4cc(Cl)c(C(C)(C)C)cc34)n2C2CCN(CC)C2)C1 (stereo not drawn) .
Response line: 10

Prompt line: Give a short answer stating reported IC50 for C=CC(=O)N1CC(NC(=O)c2c(C)nc(CNc3n[nH]c4cc(Cl)c(C(C)(C)C)cc34)n2C)C(F)(F)C1 (stereo not drawn) .
Response line: 42

Prompt line: Give a short answer stating reported IC50 for C=CS(=O)(=O)N1CC(NC(=O)c2c(C)nc(CNc3n[nH]c4cc(Cl)c(C(C)(C)C)cc34)n2C(C)C)C1 .
Response line: 58

Prompt line: Give a short answer stating reported IC50 for C=CC(=O)N1CC(NC(=O)c2c(Cl)nc(CNc3n[nH]c4cc(Cl)c(C(C)(C)C)cc34)n2CCOC)C1 .
Response line: 6

Prompt line: Give a short answer stating reported IC50 for C=CC(=O)N1C[C@H](NC(=O)c2c(Cl)nc(CNc3n[nH]c4cc(Cl)c(C(C)(C)C)cc34)n2C)[C@@H](F)C1 .
Response line: 13

Prompt line: Give a short answer stating reported IC50 for C=CC(=O)N1CC(NC(=O)c2c(Cl)nc(CNc3n[nH]c4cc(Cl)c(C(C)C)cc34)n2C(C)C)C1 .
Response line: 24

Prompt line: Give a short answer stating reported IC50 for C=CC(=O)N1CC(NC(=O)c2c(C)nc(CNc3n[nH]c4ccc(C(C)(C)C)cc34)n2C(C)C)C1 .
Response line: 68

Prompt line: Give a short answer stating reported IC50 for C=CC(=O)N1CC(NC(=O)c2c(C)nc(CNc3n[nH]c4cc(Cl)c(C(C)(C)C)cc34)n2CC)C1 .
Response line: 16

Prompt line: Give a short answer stating reported IC50 for C=CC(=O)N1CC(NC(=O)c2c(Cl)nc(CNc3n[nH]c4cc(Cl)c(C(=C)C(F)(F)F)cc34)n2C(C)C)C1 .
Response line: 809

Prompt line: Give a short answer stating reported IC50 for C=CC(=O)N1CC(NC(=O)c2c(C(F)F)nc(CNc3n[nH]c4cc(Cl)c(C(C)(C)C)cc34)n2CC2CCCN2C(C)C)C1 (stereo not drawn) .
Response line: 44
